assay: MIA Paca-2 MTT viability test; format: cell-based, human; conditions: human, MIA Paca-2 cells, read-out: cell viability
quantity-kind: viability at 2 hours, 120 μM/L (%)
Report the value in % with no unit label.

Challenge: Tell me the measured viability at 2 hours, 120 μM/L of Cc1cc2nc3c(=O)[nH]c(=O)nc-3n(CC(O)C(O)C(O)COP(=O)(O)OP(=O)(O)OC[C@H]3O[C@@H](n4cnc5c(N)ncnc54)C(O)C3O)c2cc1C (stereo partly shown) [FAD, Flavin Adenine Dinucleotide] , please.
Response given: 34

---

tested on: HepG2 hepatocellular carcinoma; experiment: Viability of HepG2 cells; type: cell-based; settings: Homo sapiens
pIC50: −log10 of the molar value.
quantity-kind: pIC50

Challenge: Tell me the measured pIC50 of Cc1cc2nc3c(=O)[nH]c(=O)nc-3n(CC(O)C(O)C(O)COP(=O)(O)OP(=O)(O)OC[C@H]3O[C@@H](n4cnc5c(N)ncnc54)C(O)C3O)c2cc1C (stereo partly shown) [FAD, Flavin Adenine Dinucleotide] , please.
Response given: 5.74 to 5.96

---

test system: HT-1080 fibrosarcoma cells; assay: Viability of HT-1080 cells; format: cell-based; settings: Homo sapiens
quantity-kind: IC50

Challenge: Tell me the measured IC50 of Cc1cc2nc3c(=O)[nH]c(=O)nc-3n(CC(O)C(O)C(O)COP(=O)(O)OP(=O)(O)OC[C@H]3O[C@@H](n4cnc5c(N)ncnc54)C(O)C3O)c2cc1C (stereo partly shown) [FAD, Flavin Adenine Dinucleotide] , please.
Response given: 1.1 to 1.8 µM

---

tested on: Huh-7replicon; test: Viability of Huh-7replicon cells; type: cell-based
quantity-kind: IC50

Challenge: Tell me the measured IC50 of Cc1cc2nc3c(=O)[nH]c(=O)nc-3n(CC(O)C(O)C(O)COP(=O)(O)OP(=O)(O)OC[C@H]3O[C@@H](n4cnc5c(N)ncnc54)C(O)C3O)c2cc1C (stereo partly shown) [FAD, Flavin Adenine Dinucleotide] , please.
Response given: 1100 to 1800 nM

---

system: HT22 cells (murine brain tumour); test: HT22 growth inhibition, MTS test; assay type: cell-based; conditions: Mus musculus, HT-22; Example 14; read-out: IC50, viability of HT22 neuronal cancer cells
quantity-kind: pIC50
When answering, recall that pIC50 equals minus log10 of the concentration in mol/L, and write that number alone.

Challenge: Value wanted: pIC50 (HT22 cells (murine brain tumour)) of entry Cc1cc2nc3c(=O)[nH]c(=O)nc-3n(CC(O)C(O)C(O)COP(=O)(O)OP(=O)(O)OC[C@H]3O[C@@H](n4cnc5c(N)ncnc54)C(O)C3O)c2cc1C (stereo partly shown) [FAD, Flavin Adenine Dinucleotide]
Response given: 5.80
